Answer each item with its documented IL-2 induced T-cell proliferation, Mean (control = 100).
Molecular target: T1, human CD25 (Interleukin-2 receptor alpha chain) (human, UniProt P01589 22-272)
T1 sequence (looked up): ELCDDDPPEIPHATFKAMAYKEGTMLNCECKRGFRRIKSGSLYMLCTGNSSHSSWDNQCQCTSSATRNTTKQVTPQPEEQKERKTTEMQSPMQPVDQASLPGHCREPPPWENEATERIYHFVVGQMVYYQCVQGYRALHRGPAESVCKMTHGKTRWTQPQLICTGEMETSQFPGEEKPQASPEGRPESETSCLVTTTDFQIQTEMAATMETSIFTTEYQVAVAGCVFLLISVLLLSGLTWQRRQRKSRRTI
Test: cell-based or functional assay
Just the number, please.

Inquiry: Report IL-2 induced T-cell proliferation, Mean (control = 100) for 7G7B6 monoclonal antibody (IL-2 non-competitive anti-CD25 antibody) (antibody, V domains shown) VH: EVQLVESGGDLVQPRGSLKLSCAASGFTFSSYGMSWVRQTPDKRLELVATINGYGDTTYYPDSVKGRFTISRDNAKNTLYLQMSSLKSEDTAMYFCARDRDYGNSYYYALDYWGQGTSVTVSS VL: QIVLSQSPAILSASPGERVTMTCRASSSVSFMHWLQQKPGSSPKPWIYATSNLASGVSARFSGSGSGTSYSLTITRVEAEDAATYYCQQWSSNPPAFGGGTKLEIK
Reply text: 55

Inquiry: Report IL-2 induced T-cell proliferation, Mean (control = 100) for ALD25H2 anti-CD25 antibody (antibody, V domains shown) VH: EVQLVESGGGLVQPGRSMKLSCAASGFTFSNHAMAWVRQAPKKGLEWVAYISYDGDNTYYRDSVKGRFTISRDNAKSTLYLQIDSLRSEDTATYYCTTGGNSGYDWGQGVMVTVSS VL: DIQMTQSPSFLSASVGDRVTINCKASQNVNKFVNWYQQKLGEAPRRLIYGTNSLQTGIPSRFSGSGSGTDYTLTISSLQPEDVATYFCQQYSSWPWTFGGGTKLELK
Reply text: 81.7

Inquiry: Report IL-2 induced T-cell proliferation, Mean (control = 100) for ALD25H4 anti-CD25 antibody (antibody, V domains shown) VH: EVQLVESGGGLVQPGRSMKLSCAVSGFTFSNHAMAWVRQAPKKGLEWVAYISYDGDNTYYRDSVKGRFTISRDNAQSTLYLQMDSLRSEDTATYYCTTGGNSGYDWGQGVMVTVSS VL: DIQMTQSPSFLSASVGDRVTINCKGSQNVNKFLNWYQQKLGEAPRRLIYGTNSLQTGIPSRFSGSGSGTDYTLTISSLQPEDVATYFCQQYTSWPWTFGGGTKLELK
Reply text: 73

Inquiry: Report IL-2 induced T-cell proliferation, Mean (control = 100) for ALD25H1 anti-CD25 antibody (antibody, V domains shown) VH: EVQLVESGGGLVQPGRSMKLSCAASGFPFSDHAMAWVRQAPKKGLQWVAYISYDGDNTYYRDSVKGRFTISRDNARSTLFLQMDSLRSEDTATYYCTTGGNSGYDWGQGVMVTVSS VL: DIQMTQSPSFLSASVGDRVTINCKASQNVNKFLNWYQQKLGEAPRRLIYGTNSLQTGIPSRFSGSGSGTDYTLTISSLQPEDVATYFCQQYSSWPWTFGGGTKLELK
Reply text: 78.1
